assayed.target: Cytochrome P450 2C19 (Homo sapiens) (UniProt P33261)
Sequence (P33261 whole entry, looked up): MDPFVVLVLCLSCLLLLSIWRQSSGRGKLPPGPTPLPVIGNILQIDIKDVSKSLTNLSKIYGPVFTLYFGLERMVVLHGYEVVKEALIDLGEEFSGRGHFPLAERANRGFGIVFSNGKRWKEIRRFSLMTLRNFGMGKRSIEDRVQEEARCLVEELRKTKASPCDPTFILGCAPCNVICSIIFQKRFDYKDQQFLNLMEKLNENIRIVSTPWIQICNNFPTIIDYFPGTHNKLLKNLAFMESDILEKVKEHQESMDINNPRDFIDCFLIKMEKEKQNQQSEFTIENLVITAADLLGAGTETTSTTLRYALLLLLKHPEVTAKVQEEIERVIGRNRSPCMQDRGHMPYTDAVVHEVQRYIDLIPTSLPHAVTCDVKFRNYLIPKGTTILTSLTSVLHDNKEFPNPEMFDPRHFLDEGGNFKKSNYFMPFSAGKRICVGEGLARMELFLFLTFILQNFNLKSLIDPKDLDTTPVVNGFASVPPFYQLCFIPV
assay: qHTS Assay for Inhibitors and Substrates of Cytochrome P450 2C19 (AID 899); note: nearly all actives have a fitted effect of over 60% in size
condition.label: recombinant CYP2C19, luciferin-H EGE luminescence; series mostly up to 11.4 µM
Results filed as inconclusive are left out. The source made the active and inactive calls. Calls come from the whole dose curve; as a rule, active = well fitted inhibition curve with a large enough effect; inconclusive = small, poorly fitted or top-dose-only effect; inactive = no such curve, though single readings can be large or run the other way.
The categories you may choose from are TRUE for active, FALSE for inactive

INPUT: Lab log entry: CCCCCCC#CC1C=CC(Oc2ccc(C=O)cc2)C(CO)O1 (stereo unspecified) — outcome as called in the assay?
OUTPUT: TRUE

INPUT: Give the logged outcome of this assay for the following compound: CC(=O)OCC1OC(C#CCC2CCCCC2)C=CC1OC(C)=O (stereo unspecified)
OUTPUT: FALSE

INPUT: Test call for this compound, please: CC1(C)OC(C(O)(c2cc(F)c(F)c(F)c2)c2cc(F)c(F)c(F)c2)C(C(O)(c2cc(F)c(F)c(F)c2)c2cc(F)c(F)c(F)c2)O1 (stereo unspecified)
OUTPUT: FALSE

INPUT: Look up the recorded call for COC(=O)C1=C(C)N(Cc2ccccc2)[C@]23O[C@](C(=O)OC)(C(=O)N2C1c1ccccc1)C1C(=O)N(c2ccccc2)C(=O)C13 (stereo partly specified) in this test.
OUTPUT: FALSE

INPUT: Which result was noted for this compound in the test: OCC1OC(C#Cc2ccccc2)C=CC1OCc1ccccc1 (stereo unspecified)
OUTPUT: TRUE

INPUT: What did this assay record as the result for `COc1cc(O)c(C(=O)/C=C/c2ccccc2)c(O)c1` ?
OUTPUT: TRUE

INPUT: Recorded test outcome, item CC12C=C(/C=C/c3ccc(C(F)(F)F)cc3)C(C)(C1)C(c1ccc(C(F)(F)F)cc1)CC2=O (stereo unspecified)
OUTPUT: FALSE

INPUT: Which outcome did this test record for the compound C=C(C)C(O)/C=C/CCCCCCC (stereo unspecified) ?
OUTPUT: FALSE

INPUT: Could you kindly confirm the outcome this assay logged for C(#CC1C=CC2OC(c3ccccc3)OCC2O1)c1ccccc1 (stereo unspecified) ?
OUTPUT: FALSE

INPUT: Assay result, entry COC(=O)C/C=C1\c2ccccc2C(OC)C1C (stereo unspecified) — outcome?
OUTPUT: FALSE

INPUT: Could you kindly confirm the outcome this assay logged for CCCCC#CC1C=CC(Oc2cc(OC)c(OC)c(OC)c2)C(COC(=O)OCC)O1 (stereo unspecified) ?
OUTPUT: FALSE

INPUT: Assay result, entry Cc1cc(C)cc(C#CC2C=CC(Oc3ccc(C4CCCC4)cc3)C(CO)O2)c1 (stereo unspecified) — outcome?
OUTPUT: FALSE

INPUT: Short answer needed: outcome of this test for CCN1C(C)=C(C(=O)OC)C(c2ccccc2)N2C(=O)[C@@]3(C(=O)OC)O[C@@]12C1C(=O)N(c2ccccc2)C(=O)C13 (stereo partly specified) ?
OUTPUT: FALSE

INPUT: Could you kindly confirm the outcome this assay logged for Cc1cc(=O)oc2cc(OC3C=CC(C#CC(C)(C)C)OC3CO)ccc12 (stereo unspecified) ?
OUTPUT: FALSE

INPUT: // param item: COC(=O)NC(c1ccco1)[C@]1(C(C)=O)CCCC1=O (stereo partly specified) ; yields the recorded call
OUTPUT: FALSE

INPUT: # outcome recorded in this test, key = C=C(C)C(O)/C=C/c1ccc(C)cc1 (stereo unspecified)
OUTPUT: TRUE

INPUT: In this assay, the call recorded for CC1CCC2C(=O)N3CCCC3C(=O)N2C1c1ccc(Br)cc1 (stereo unspecified) was what?
OUTPUT: FALSE

INPUT: Please let me know the test result on file for COC(=O)NC(c1ccc2ccccc2c1)C(C(C)=O)C(=O)OC (stereo unspecified) .
OUTPUT: TRUE

INPUT: // return assay outcome for COC(=O)NC(CC(C)=O)c1ccccc1 (stereo unspecified)
OUTPUT: FALSE

INPUT: I'd appreciate the recorded outcome for COC(=O)C1=C2N(Cc3ccccc3)C(C)=C(C(=O)OC)C(c3ccccc3)N2C(=O)[C@](O)(C(=O)OC)C1 (stereo partly specified) from this test.
OUTPUT: FALSE

INPUT: Hi team, can someone confirm the assay call for COC(=O)CC1=COC(O)C2C(CO)=CC[C@@H]12 (stereo partly specified) ?
OUTPUT: FALSE

Data provenance: PubChem BioAssay (NCATS)
